FYI, the data here is from patent US20230312601A1.

# System: male Sprague-Dawley rats
# RUN_DESCRIPTION: Cardiovascular Assay in anesthetized rats
# Format: in vivo
# TEST_CONTEXT: change from vehicle, dose 3 mg/kg, rat
The entries below come with measured MAP (%) values attached.
Field format: number, assumed %, no unit text.

CO[C@H](c1c(Nc2ccc([C@H](N(C)C(=O)C3CCS(=O)(=O)CC3)C(F)(F)F)cc2)cnc2sc(C)nc12)C(F)F = 1
CO[C@@H](C)c1c(Nc2ccc([C@H](N(C)C(=O)C3CCS(=O)(=O)CC3)C(F)(F)F)cc2)cnc2sc(C)nc12 = −5

Query: Please give measured MAP (%) of the following entry: CO[C@@H](C)c1c(Nc2ccc([C@H](N(C)C(=O)C3CCS(=O)(=O)CC3)C(F)(F)F)cc2)cnc2cc(Cl)nn12 [Comparative Example A, reference compound]
Result: −10

Query: Please give measured MAP (%) of the following entry: CO[C@@H](c1c(Nc2ccc([C@H](N(C)C(=O)C3CCN(C(C)=O)CC3)C(F)(F)F)cc2)cnc2sc(C)nc12)C(F)F
Result: −5

Query: Please give measured MAP (%) of the following entry: CO[C@@H](C)c1c(Nc2ccc([C@H](N(C)C(=O)C3CCN(C(C)=O)CC3)C(F)(F)F)cc2)cnc2sc(C)nc12
Result: 0
